# credit: ChEMBL document CHEMBL2401675

Subject of test: Replicase polyprotein 1a (Severe acute respiratory syndrome-related coronavirus, UniProt P0C6U8)
Property label: pKi
// returns pKi (minus log10 of molar concentration), number only

Entry smiles	Property label	Assay result
CC(C)C[C@H](NC(=O)OCc1ccccc1)C(=O)N[C@@H](C[C@@H]1CCNC1=O)C(=O)c1ncc(-c2ccccc2)s1	pKi	6.18
CSCC[C@H](NC(=O)OCc1ccccc1)C(=O)N[C@@H](C[C@@H]1CCNC1=O)C(=O)c1nc2ccccc2s1	pKi	5.03
COc1ccc(/C=C/C(=O)N[C@@H](CC(C)C)C(=O)N[C@@H](C[C@@H]2CCNC2=O)C(=O)c2nc3ccccc3s2)cc1	pKi	6.15
COc1ccc(-c2cnc(C(=O)[C@H](C[C@@H]3CCNC3=O)NC(=O)[C@H](CC(C)C)NC(=O)OCc3ccccc3)s2)cc1	pKi	4.28
COc1ccc(NCC(=O)N[C@@H](CC(C)C)C(=O)N[C@@H](C[C@@H]2CCNC2=O)C(=O)c2nc3ccccc3s2)cc1	pKi	5.49

# query: pKi of entry `CC(C)CC(=O)N[C@@H](CC(C)C)C(=O)N[C@@H](C[C@@H]1CCNC1=O)C(=O)c1nc2ccccc2s1`
5.23

----------
Subject of test: Replicase polyprotein 1a (Severe acute respiratory syndrome-related coronavirus, UniProt P0C6U8)
Mark MET only for Ki values smaller than 2 µM; exact matches and larger values are NOT MET.

Entry smiles	Qualitative label
CCCC[C@H](NC(=O)OCc1ccccc1)C(=O)N[C@@H](C[C@@H]1CCNC1=O)C(=O)c1nc2ccccc2s1	MET
CC(C)C[C@H](NC(=O)CCc1cccnc1)C(=O)N[C@@H](C[C@@H]1CCNC1=O)C(=O)c1nc2ccccc2s1	NOT MET

Item `COc1ccc(OCC(=O)N[C@@H](CC(C)C)C(=O)N[C@@H](C[C@@H]2CCNC2=O)C(=O)c2nc3ccccc3s2)cc1` : Ki beneath 2 µM, strictly?
MET

Note, next up: `COc1ccccc1-c1cnc(C(=O)[C@H](C[C@@H]2CCNC2=O)NC(=O)[C@H](CC(C)C)NC(=O)OCc2ccccc2)s1`
NOT MET

Note, next up: `Cc1ccc(-c2cnc(C(=O)[C@H](C[C@@H]3CCNC3=O)NC(=O)[C@H](CC(C)C)NC(=O)OCc3ccccc3)s2)cc1`
NOT MET

Note, next up: `COc1ccc(CCC(=O)N[C@@H](CC(C)C)C(=O)N[C@@H](C[C@@H]2CCNC2=O)C(=O)c2nc3ccccc3s2)cc1`
MET

Note, next up: `COc1ccc(/C=C/C(=O)N[C@@H](CC(C)C)C(=O)N[C@@H](C[C@@H]2CCNC2=O)C(=O)c2nc3ccccc3s2)cc1OC`
MET

Note, next up: `CC(C)[C@H](NC(=O)OCc1ccccc1)C(=O)N[C@@H](C[C@@H]1CCNC1=O)C(=O)c1nc2ccccc2s1`
MET

Note, next up: `CC[C@@H](C)[C@H](NC(=O)OCc1ccccc1)C(=O)N[C@@H](C[C@@H]1CCNC1=O)C(=O)c1nc2ccccc2s1`
NOT MET
